- tested on: MEK1 (Homo sapiens, UniProt Q02750)
- Construct: purchased SignalChem M02-14H
- Sequence (Q02750 whole entry): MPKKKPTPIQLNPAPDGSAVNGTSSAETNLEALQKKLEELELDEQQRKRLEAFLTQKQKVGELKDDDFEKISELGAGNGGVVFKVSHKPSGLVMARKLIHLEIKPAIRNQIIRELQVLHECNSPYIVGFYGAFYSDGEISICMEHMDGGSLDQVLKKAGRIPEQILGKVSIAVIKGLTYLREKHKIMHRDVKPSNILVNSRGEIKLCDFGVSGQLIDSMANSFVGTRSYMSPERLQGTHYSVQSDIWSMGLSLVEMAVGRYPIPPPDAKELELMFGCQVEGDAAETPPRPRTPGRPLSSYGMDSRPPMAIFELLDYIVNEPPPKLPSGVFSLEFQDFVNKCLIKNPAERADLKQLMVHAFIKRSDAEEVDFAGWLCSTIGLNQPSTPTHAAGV
- Sequence (P15056 445-723 partner limits assumed): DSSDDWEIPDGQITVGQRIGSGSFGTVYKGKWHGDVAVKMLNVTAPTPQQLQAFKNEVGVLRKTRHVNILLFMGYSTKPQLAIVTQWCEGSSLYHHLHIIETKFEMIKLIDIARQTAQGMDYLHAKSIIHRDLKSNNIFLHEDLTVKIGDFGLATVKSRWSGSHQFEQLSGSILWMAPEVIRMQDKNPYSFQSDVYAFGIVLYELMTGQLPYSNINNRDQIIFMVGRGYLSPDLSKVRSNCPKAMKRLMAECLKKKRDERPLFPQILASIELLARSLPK
- protocol details: MEK1 kinase cascade assay (ADP-Glo), inhibition of MEK1 kinase activity
- Type: biochemical
- condition context: 25 nM BRAF, 6.25 nM MEK1, 0.5 μM ERK, 1 mM ATP; 20 min preincubation, 1 hr at 25° C.; read-out: BRAF ADP Glo kinase assay V3 (IC50)
result type: IC50

Report IC50 for CNS(=O)(=O)Nc1nccc(CN2C(=O)Oc3c(ccc(Oc4nccnn4)c3F)C23CCC3)c1F < 5 nM

Specify measured IC50 for CNS(=O)(=O)Nc1cccc(CN2C(=O)Oc3c(ccc(Oc4ncccn4)c3F)[C@@H]2C)c1F (single isomer, unassigned) . 5 to 50 nM

State its IC50 for this compound: CN(C)C(=O)Oc1ccc2c(c1)OC(=O)N(Cc1cccc(NS(=O)(=O)N3CCC(C(N)=O)C3)c1F)C2 (stereo not drawn) 5 to 50 nM

For the compound CNS(=O)(=O)Nc1cc(F)cc(CN2C(=O)Oc3cc(Oc4cccnn4)ccc3C23CCC3)c1F , give its reported IC50. 5 to 50 nM

Supply reported IC50 belonging to this compound: CNS(=O)(=O)Cc1cccc(CN2Cc3ccc(OC(=O)N(C)C)cc3OC2=O)c1F > 500 nM

Could you please provide reported IC50 for CNS(=O)(=O)Cc1cccc(CN2C(=O)Oc3cc(OC(=O)N(C)C)ccc3C23COC3)c1F ? Thanks! 50 to 500 nM

Report IC50 for O=C1Oc2cc(Oc3ccccn3)ccc2CN1Cc1cccc(NS(=O)(=O)C2CC2)c1F 5 to 50 nM

Tell me measured IC50 for CNS(=O)(=O)Nc1cccc(CN2C(=O)Oc3cc(Oc4cccnn4)ccc3C2(C)C)c1F please. 5 to 50 nM

Specify measured IC50 for CN(C)C(=O)Oc1ccc2c(c1)OC(=O)N(Cc1cccc(NS(=O)(=O)N(C)C)c1F)C21CCC1 . 5 to 50 nM

Please give the documented IC50 of CNS(=O)(=O)Nc1cccc(CN2Cc3cc(C)c(OC(=O)N(C)C)cc3OC2=O)c1F < 5 nM

Give the reported IC50 for this compound. CNS(=O)(=O)Nc1cccc(CN2C(=O)Oc3cc(Oc4cccnn4)ccc3C23CC3)c1F < 5 nM

Identify measured IC50 associated with CNS(=O)(=O)Nc1cccc(CN2Cc3ccc(OC4COC4)cc3OC2=O)c1F > 500 nM

// fetch IC50 given entry C[C@H]1c2c(F)cc(Oc3cccnn3)cc2OC(=O)N1Cc1cccc(NS(=O)(=O)C2CC2)c1F (single isomer, unassigned) 5 to 50 nM

Read the entry CNS(=O)(=O)Nc1cccc(CN2C(=O)Oc3cc(OC(=O)N(C)C)ccc3C23COC3)c1F and write its reported IC50. < 5 nM

Retrieve IC50 measured for O=C1Oc2c(ccc(Oc3nccnn3)c2F)C2(CCC2)N1Cc1ccnc(NS(=O)(=O)C2CC2)c1F and print it. 5 to 50 nM

Please give the documented IC50 of C[C@@H]1c2ccc(Oc3cccnn3)c(F)c2OC(=O)N1Cc1cccc(NS(=O)(=O)N(C)C)c1F (single isomer, unassigned) < 5 nM

Quick one: give measured IC50 for CNS(=O)(=O)Nc1cccc(CN2C(=O)Oc3cc(Oc4ncco4)c(F)cc3C2C)c1F (single isomer, unassigned) 5 to 50 nM

Return IC50 for the following compound: CNS(=O)(=O)Nc1cccc(CN2Cc3ccc(Oc4ccccn4)cc3OC2=O)c1F < 5 nM

Tell me IC50 reported for CNS(=O)(=O)Nc1nccc(CN2C(=O)Oc3cc(Oc4cccnn4)c(F)cc3C23COC3)c1F 5 to 50 nM

Entry CNS(=O)(=O)Nc1cccc(CN2C(=O)Oc3c(ccc(OC(=O)N(C)C)c3F)[C@@H]2C)c1F (single isomer, unassigned) needs its IC50 filled in; supply it. 5 to 50 nM

Answer with reported IC50 of CN(C)C(=O)Oc1ccc2c(c1)OC(=O)N(Cc1cccc(NS(=O)(=O)N3CC4(COC4)C3)c1F)C2 5 to 50 nM

Give the reported value of IC50 for this record: CN(C)C(=O)Oc1ccc2c(c1)OC(=O)N(Cc1cccc(N3CCOC3=O)c1F)C2 > 500 nM

Complete the entry with IC50 for CN(C)S(=O)(=O)Nc1nccc(CN2C(=O)Oc3cc(Oc4ncco4)ccc3C23CCC3)c1F 5 to 50 nM

Specify IC50 for CNS(=O)(=O)Nc1cccc(CN2C(=O)Oc3cc(Oc4ccccn4)ccc3C23COC3)c1F and stop. 5 to 50 nM

Please supply the value of reported IC50 for the item O=C1Oc2c(ccc(Oc3cccnn3)c2F)C2(CCC2)N1Cc1ccnc(NS(=O)(=O)C2CC2)c1F 50 to 500 nM

Report measured IC50; entry is CNS(=O)(=O)Nc1cccc(CN2C(=O)Oc3c(ccc(Oc4ncco4)c3F)[C@H]2C)c1F (single isomer, unassigned) 5 to 50 nM

Give IC50 for [2H]C1([2H])c2ccc(Oc3nccnn3)cc2OC(=O)N1Cc1cccc(NS(=O)(=O)NC)c1F 5 to 50 nM

====

For each of the molecules below, state its pIC50.
- Tested on: p-ERK1/2 in HCT116 cells
- protocol details: AlphaLISA p-ERK assay, cellular inhibition of ERK phosphorylation in HCT116 cells
- Type: cell-based
- condition context: Homo sapiens, HCT-116, 2 hours treatment, PMA stimulation 30 mins
pIC50: −log10 of the molar value.

For p-ERK1/2 in HCT116 cells, give pIC50 of the listed molecule: CNS(=O)(=O)Nc1cccc(CN2C(=O)Oc3c(ccc(Oc4cccnn4)c3F)[C@@H]2C)c1F (single isomer, unassigned) [Compound 35] 7.00 to 8.00

Given O=C1Oc2cc(Oc3ccccn3)ccc2CN1Cc1cccc(NS(=O)(=O)C2CC2)c1F [Compound 62] , report its pIC50 on p-ERK1/2 in HCT116 cells. < 7.00

Recall the reported pIC50 of O=C1Oc2cc(Oc3nccnn3)ccc2C2(CCC2)N1Cc1ccnc(NS(=O)(=O)C2CC2)c1F [Compound 161] when tested on p-ERK1/2 in HCT116 cells. 7.00 to 8.00

Supply pIC50 measured with p-ERK1/2 in HCT116 cells for CNS(=O)(=O)Nc1cccc(CN2Cc3cc(Cl)c(OC(=O)N(C)C)cc3OC2=O)c1F [Compound 149] . 8.00 to 9.00

Provide pIC50, recorded with p-ERK1/2 in HCT116 cells, of CN(C)S(=O)(=O)Nc1cccc(CN2C(=O)Oc3cc(Oc4cccnn4)ccc3C23COC3)c1F [Compound 64] 8.00 to 9.00

Would you please give the reported pIC50 of CNS(=O)(=O)Nc1nccc(CN2C(=O)Oc3cc(Oc4cccnn4)ccc3[C@@H]2C)c1F (single isomer, unassigned) [Compound 22] with p-ERK1/2 in HCT116 cells? 7.00 to 8.00

Provide pIC50, tested on p-ERK1/2 in HCT116 cells, for CNS(=O)(=O)Nc1nccc(CN2C(=O)Oc3cc(Oc4cccnn4)c(F)cc3C23COC3)c1F [Compound 18] . 7.00 to 8.00

Specify pIC50 for CN(C)C(=O)Oc1ccc2c(c1)OC(=O)N(Cc1cccc(CN3CCOC3=O)c1F)C2 [Compound 21] , system p-ERK1/2 in HCT116 cells. 8.00 to 9.00

====

- tested on: MEK1 (Homo sapiens, UniProt Q02750)
- Construct: purchased SignalChem M02-14H
- protocol details: MEK1 kinase cascade assay (ADP-Glo), inhibition of MEK1 kinase activity
- Assay type: biochemical
- condition context: 25 nM BRAF, 6.25 nM MEK1, 0.5 μM ERK, 1 mM ATP; 20 min preincubation, 1 hr at 25° C.; read-out: BRAF ADP Glo kinase assay V3 (IC50)
pIC50: −log10 of the molar value.
result type: pIC50

Check the records and state pIC50 for CNS(=O)(=O)Nc1nccc(CN2C(=O)Oc3cc(Oc4cccnn4)ccc3[C@@H]2C)c1F (single isomer, unassigned) 7.30 to 8.30

Report measured pIC50; entry is CNS(=O)(=O)Nc1cccc(CN2C(=O)Oc3cc(Oc4ncco4)ccc3[C@@H]2C)c1F (single isomer, unassigned) 7.30 to 8.30

Specify measured pIC50 for CNS(=O)(=O)Nc1cccc(CN2C(=O)Oc3c(ccc(Oc4cccnn4)c3F)[C@H]2C)c1F (single isomer, unassigned) . 7.30 to 8.30

Using known records, supply pIC50 for CNS(=O)(=O)Nc1nccc(CN2C(=O)Oc3cc(Oc4cccnn4)cc(F)c3C23COC3)c1F 7.30 to 8.30

Consider the molecule CNS(=O)(=O)Nc1cccc(CN2C(=O)Oc3cc(Oc4ncco4)ccc3C23COC3)c1F . State its measured pIC50. > 8.30

// Input: O=C1Oc2cc(Oc3cccnn3)ccc2CN1Cc1cccc(N2CCOC2=O)c1F . Output its pIC50 only. 6.30 to 7.30

Give pIC50 for CNS(=O)(=O)Nc1nccc(CN2C(=O)Oc3cc(Oc4cccnn4)cc(F)c3C23CCC3)c1F > 8.30

Given the molecule CNS(=O)(=O)Nc1cc(F)cc(CN2C(=O)Oc3cc(Oc4ncco4)ccc3C23CCC3)c1F , write its reported pIC50. 6.30 to 7.30

Find the measured pIC50 of CNS(=O)(=O)Nc1nccc(CN2C(=O)Oc3cc(Oc4nc(C)co4)ccc3C23CCC3)c1F and report it. 7.30 to 8.30

Give reported pIC50 value for CNS(=O)(=O)Nc1nccc(CN2C(=O)Oc3c(ccc(Oc4cccnn4)c3F)C23CCC3)c1F 7.30 to 8.30

Let me know recorded pIC50 for CNS(=O)(=O)Nc1cccc(CN2C(=O)Oc3cc(Oc4cccnn4)cnc3[C@H]2C)c1F (stereo in doubt) , thanks. 7.30 to 8.30

Given the molecule CNS(=O)(=O)Nc1nccc(CN2C(=O)Oc3cc(Oc4ncco4)c(F)cc3C2C)c1F (single isomer, unassigned) [Compound 186] , write its reported pIC50. 6.30 to 7.30

Fill in reported pIC50 for this entry: CNS(=O)(=O)Nc1cccc(CN2Cc3c(F)cc(OC(=O)N(C)C)cc3OC2=O)c1F > 8.30

Name the recorded pIC50 of the molecule listed here: CNS(=O)(=O)Nc1cccc(CN2C(=O)Oc3cc(Oc4cccnn4)c(F)cc3C23COC3)c1F > 8.30
